These entries and their values trace back to the MegaScale stability set (Tsuboyama et al. 2023).

B1: EHEE_rd3_0053 (parent)
chain: TYTFKVDNKDQAKKAAKWAKKLGLSFQIEKHGDTFKITVQ

- Variants of: B1
- Assay Text: folding stability dG (cDNA display proteolysis); higher = more stable
- Cond: PBS, room temperature
Measurement Type: folding stability dG (kcal/mol)
One number for each entry, in kcal/mol.

Biosequence | Measurement Type | Observed Measurement
TYTFKVDNKDQAKKAAKWAKKLGLSFMIEKHGDTFKITVQ [Q27M] | folding stability dG | 2.54
TYTFKVDNKDQAKKAAKWAKKLGLSFQIEKHGDTFKITLQ [V39L] | folding stability dG | 2.23
TYTFKVDNKDQAKKAAKWAKKLGLSFQIEKHCDTFKITVQ [G32C] | folding stability dG | 1.78
TYTFIVDNKDQAKKAAKWAKKLGLSFQIEKHGDTFKITVQ [K5I] | folding stability dG | 3.47
TYTFKVDNKDQAKKKAKWAKKLGLSFQIEKHGDTFKITVQ [A15K] | folding stability dG | 1.25
TYTFKVDNKDQAKKALKWAKKLGLSFQIEKHGDTFKITVQ [A16L] | folding stability dG | 2.33
TYTFKVDNKDQAKLAAKWAKKLGLSFQIEKHGDTFKITVQ [K14L] | folding stability dG | 2.33
TYTFKVDNKDQAKKAAKWAKKLGLSFQQEKHGDTFKITVQ [I28Q] | folding stability dG | 0.977

Below is a list of variants. For each, state its recorded folding stability dG.
1. TYTAKVDNKDQAKKAAKWAKKLGLSFQIEKHGDTFKITVQ [F4A]
2. TYTFVVDNKDQAKKAAKWAKKLGLSFQIEKHGDTFKITVQ [K5V]
3. TYTYKVDNKDQAKKAAKWAKKLGLSFQIEKHGDTFKITVQ [F4Y]

[0.455, 3.31, 1.69]
